Origin of measurements: patent US20230322761A1

- target: BTK (Homo sapiens, UniProt Q06187)
- Construct: endogenous in cells; host or cells: TMD-8 cells
- Sequence (Q06187 whole entry): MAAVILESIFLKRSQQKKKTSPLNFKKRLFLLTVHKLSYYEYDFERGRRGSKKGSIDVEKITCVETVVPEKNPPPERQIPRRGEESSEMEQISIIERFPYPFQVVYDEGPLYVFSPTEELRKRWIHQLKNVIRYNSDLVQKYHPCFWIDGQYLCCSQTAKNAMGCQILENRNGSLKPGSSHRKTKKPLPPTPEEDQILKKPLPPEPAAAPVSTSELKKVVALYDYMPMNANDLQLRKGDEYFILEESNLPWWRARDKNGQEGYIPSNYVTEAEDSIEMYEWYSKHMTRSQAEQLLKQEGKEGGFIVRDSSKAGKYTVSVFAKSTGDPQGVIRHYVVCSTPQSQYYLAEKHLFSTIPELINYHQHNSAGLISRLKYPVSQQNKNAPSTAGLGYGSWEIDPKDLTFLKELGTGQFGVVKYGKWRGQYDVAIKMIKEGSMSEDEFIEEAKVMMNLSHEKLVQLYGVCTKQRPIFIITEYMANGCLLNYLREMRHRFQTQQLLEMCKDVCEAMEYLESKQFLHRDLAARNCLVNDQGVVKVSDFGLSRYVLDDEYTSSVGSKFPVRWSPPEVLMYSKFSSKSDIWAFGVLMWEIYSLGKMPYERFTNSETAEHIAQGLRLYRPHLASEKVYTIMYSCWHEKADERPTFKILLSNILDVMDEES
- test_description: BTK degradation in TMD-8 cells, HTRF assay after 6 h treatment
- Format: cell-based
- cond: TMD8, maximum percentage of inhibition (degradation)
endpoint_name: Dmax (%)

{"compound": "CC(C)(C)c1noc(C(=O)NCc2ccc(-c3n[nH]c4ncc(-c5ccc(C6CCN(CCc7ccc(C8CCC(=O)NC8=O)cc7)CC6)cc5)cc34)cc2F)n1 (stereo not shown)", "readout_unit": "%", "Dmax": 95.2}
{"compound": "Cc1cc(-c2n[nH]c3ncc(-c4ccc(N5CCN(CCc6ccc(C7CCC(=O)NC7=O)c(F)c6)CC5)cc4)cc23)ccc1[C@@H](C)NC(=O)c1noc(C(C)(C)C)n1 (stereo partly shown)", "readout_unit": "%", "Dmax": 98.3}
{"compound": "COc1cc(OCCCN2CCC(c3ccc(-c4cnc5[nH]nc(-c6ccc(CNC(=O)c7nc(C(C)(C)C)no7)c(C)c6)c5c4)cc3)CC2)ccc1C1CCC(=O)NC1=O (stereo not shown)", "readout_unit": "%", "Dmax": 97.5}
{"compound": "Cc1cc(-c2n[nH]c3ncc(-c4ccc(N5CCN(CC6CCN(c7ccc(N8CCC(=O)NC8=O)cc7)CC6)CC5)cc4)cc23)ccc1[C@@H](C)NC(=O)c1noc(C(C)(C)C)n1", "readout_unit": "%", "Dmax": 93.4}
